System: HSSY-II complex spheroid growth, percent test/control
Test: Anticancer human tumor HSSY-II cell line growth inhibition [Asc];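 further: spheroids exposed to drug for 7 days before reading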
Details: second compound 0.01 µM; first compound 0.01 µM; hits give low values
measuredParameter: viability, T/C (%)
Expressed in %, but write only the number.

O=C(c1ccc(F)c(F)c1Nc1ccc(I)cc1F)N1CC(O)([C@@H]2CCCCN2)C1 + CNC(C)C(=O)NC1CN(S(=O)(=O)c2cccc(S(=O)(=O)N3CCC4CCC(C(=O)NC(c5ccccc5)c5ccccc5)N4C(=O)C(NC(=O)C(C)NC)C3)c2)CCC2CCC(C(=O)NC(c3ccccc3)c3ccccc3)N2C1=O :: 87.8

Consider the compound NC1CCC(NC2CC2c2ccccc2)CC1 (stereo not drawn) + CNC(C)C(=O)NC1CN(S(=O)(=O)c2cccc(S(=O)(=O)N3CCC4CCC(C(=O)NC(c5ccccc5)c5ccccc5)N4C(=O)C(NC(=O)C(C)NC)C3)c2)CCC2CCC(C(=O)NC(c3ccccc3)c3ccccc3)N2C1=O and give its measured viability, T/C.
54.9

Try the compound COc1c(OCCCN2CCOCC2)ccc2c3n(c(=NC(=O)c4cnc(N)nc4)nc12)CCN3 + CNC(C)C(=O)NC1CN(S(=O)(=O)c2cccc(S(=O)(=O)N3CCC4CCC(C(=O)NC(c5ccccc5)c5ccccc5)N4C(=O)C(NC(=O)C(C)NC)C3)c2)CCC2CCC(C(=O)NC(c3ccccc3)c3ccccc3)N2C1=O
79.6

###

Catalogue of compounds with associated viability, T/C
Test system: HSSY-II complex spheroid growth, percent test/control
Test: Anticancer human tumor HSSY-II cell line growth inhibition [Asc];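 further: spheroids exposed to drug for 7 days before reading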
Conditions: second compound 0.1 µM; first compound 0.00949 µM; hits give low values
From the text: Multicellular complex tumor spheroid response to apoptosis pathway targeting inhibitors Alrizomadlin, Pelcitoclax, and Dasminapant in combination with a variety of drugs and investigational agents in selected tumor cell lines […] Compounds. […] If the clinical Cmax for an agent had not been determined, the highest concentration tested was 10 microM. […]
Use % as the unit, but write only the number.

// known answers, use as guide
Cc1nc(N2CCC3(CC2)COC(C)C3N)c(CO)nc1Sc1ccnc(N)c1Cl (stereo unspecified) + CNC(C)C(=O)NC1CN(S(=O)(=O)c2cccc(S(=O)(=O)N3CCC4CCC(C(=O)NC(c5ccccc5)c5ccccc5)N4C(=O)C(NC(=O)C(C)NC)C3)c2)CCC2CCC(C(=O)NC(c3ccccc3)c3ccccc3)N2C1=O :: 96.9
CCN1C(C(=O)NC23CCC(C(=O)O)(CC2)CC3)C(c2cccc(Cl)c2F)C2(C(=O)Nc3cc(Cl)ccc32)C12CCCCC2 (stereo unspecified) + CNC(C)C(=O)NC1CN(S(=O)(=O)c2cccc(S(=O)(=O)N3CCC4CCC(C(=O)NC(c5ccccc5)c5ccccc5)N4C(=O)C(NC(=O)C(C)NC)C3)c2)CCC2CCC(C(=O)NC(c3ccccc3)c3ccccc3)N2C1=O :: 90
Cc1nc(N2CCC3(CC2)COC(C)C3N)c(CO)nc1Sc1ccnc(N)c1Cl (stereo unspecified) + Cc1c(S(C)(=O)=O)c(-c2cc(F)cc(N3CCN(c4ccc(NS(=O)(=O)c5ccc(NC(CCN6CCC(C(=O)OCCCP(=O)(O)O)CC6)CSc6ccccc6)c(S(=O)(=O)C(F)(F)F)c5)cc4)CC3)c2)c(-c2ccc(Cl)cc2)n1C(C)C :: 79.8
NC(=O)C(=Cn1cnc(-c2cc(C(F)(F)F)cc(C(F)(F)F)c2)n1)c1cncnc1 + CNC(C)C(=O)NC1CN(S(=O)(=O)c2cccc(S(=O)(=O)N3CCC4CCC(C(=O)NC(c5ccccc5)c5ccccc5)N4C(=O)C(NC(=O)C(C)NC)C3)c2)CCC2CCC(C(=O)NC(c3ccccc3)c3ccccc3)N2C1=O :: 58.9

May I ask what viability, T/C has been recorded for CCN1C(C(=O)NC23CCC(C(=O)O)(CC2)CC3)C(c2cccc(Cl)c2F)C2(C(=O)Nc3cc(Cl)ccc32)C12CCCCC2 (stereo unspecified) + Cc1c(S(C)(=O)=O)c(-c2cc(F)cc(N3CCN(c4ccc(NS(=O)(=O)c5ccc(NC(CCN6CCC(C(=O)OCCCP(=O)(O)O)CC6)CSc6ccccc6)c(S(=O)(=O)C(F)(F)F)c5)cc4)CC3)c2)c(-c2ccc(Cl)cc2)n1C(C)C ?
106

And for NC(=O)C(=Cn1cnc(-c2cc(C(F)(F)F)cc(C(F)(F)F)c2)n1)c1cncnc1 + Cc1c(S(C)(=O)=O)c(-c2cc(F)cc(N3CCN(c4ccc(NS(=O)(=O)c5ccc(NC(CCN6CCC(C(=O)OCCCP(=O)(O)O)CC6)CSc6ccccc6)c(S(=O)(=O)C(F)(F)F)c5)cc4)CC3)c2)c(-c2ccc(Cl)cc2)n1C(C)C ?
65.4

###

System: HSSY-II complex spheroid growth, percent test/control
Experiment: Anticancer human tumor HSSY-II cell line growth inhibition [Asc];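 further: spheroids exposed to drug for 7 days before reading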
Conditions: second compound 0.1 µM; first compound 0.000316 µM; hits give low values
measuredParameter: viability, T/C (%)
Numbers only here, please. The scale is %.

// known answers, use as guide
NC1CCC(NC2CC2c2ccccc2)CC1 (centres undefined) + CNC(C)C(=O)NC1CN(S(=O)(=O)c2cccc(S(=O)(=O)N3CCC4CCC(C(=O)NC(c5ccccc5)c5ccccc5)N4C(=O)C(NC(=O)C(C)NC)C3)c2)CCC2CCC(C(=O)NC(c3ccccc3)c3ccccc3)N2C1=O :: 56.2
Cn1ncnc1[C@H]1c2n[nH]c(=O)c3cc(F)cc(c23)N[C@@H]1c1ccc(F)cc1 + CNC(C)C(=O)NC1CN(S(=O)(=O)c2cccc(S(=O)(=O)N3CCC4CCC(C(=O)NC(c5ccccc5)c5ccccc5)N4C(=O)C(NC(=O)C(C)NC)C3)c2)CCC2CCC(C(=O)NC(c3ccccc3)c3ccccc3)N2C1=O :: 82.9
Cn1ncnc1[C@H]1c2n[nH]c(=O)c3cc(F)cc(c23)N[C@@H]1c1ccc(F)cc1 + Cc1c(S(C)(=O)=O)c(-c2cc(F)cc(N3CCN(c4ccc(NS(=O)(=O)c5ccc(NC(CCN6CCC(C(=O)OCCCP(=O)(O)O)CC6)CSc6ccccc6)c(S(=O)(=O)C(F)(F)F)c5)cc4)CC3)c2)c(-c2ccc(Cl)cc2)n1C(C)C :: 100

What value of viability, T/C has been recorded for this entry: NC1CCC(NC2CC2c2ccccc2)CC1 (centres undefined) + Cc1c(S(C)(=O)=O)c(-c2cc(F)cc(N3CCN(c4ccc(NS(=O)(=O)c5ccc(NC(CCN6CCC(C(=O)OCCCP(=O)(O)O)CC6)CSc6ccccc6)c(S(=O)(=O)C(F)(F)F)c5)cc4)CC3)c2)c(-c2ccc(Cl)cc2)n1C(C)C
58.9

###

Test system: HSSY-II complex spheroid growth, percent test/control
Experiment: Anticancer human tumor HSSY-II cell line growth inhibition [Asc];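 further: spheroids exposed to drug for 7 days before reading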
Conditions: second compound 1 µM; first compound 0.316 µM; hits give low values
Could you mark each record criterion met if its viability, T/C falls strictly under 80%, and criterion not met if it equals or exceeds it?

Past entries and their recorded results:
CCN1CCN(Cc2ccc(Nc3ncc(F)c(-c4cc(F)c5nc(C)n(C(C)C)c5c4)n3)nc2)CC1 + Cc1c(S(C)(=O)=O)c(-c2cc(F)cc(N3CCN(c4ccc(NS(=O)(=O)c5ccc(NC(CCN6CCC(C(=O)OCCCP(=O)(O)O)CC6)CSc6ccccc6)c(S(=O)(=O)C(F)(F)F)c5)cc4)CC3)c2)c(-c2ccc(Cl)cc2)n1C(C)C :: criterion met
CCN1CCN(Cc2ccc(Nc3ncc(F)c(-c4cc(F)c5nc(C)n(C(C)C)c5c4)n3)nc2)CC1 + CNC(C)C(=O)NC1CN(S(=O)(=O)c2cccc(S(=O)(=O)N3CCC4CCC(C(=O)NC(c5ccccc5)c5ccccc5)N4C(=O)C(NC(=O)C(C)NC)C3)c2)CCC2CCC(C(=O)NC(c3ccccc3)c3ccccc3)N2C1=O :: criterion met
CNC(C)C(=O)NC1CN(S(=O)(=O)c2cccc(S(=O)(=O)N3CCC4CCC(C(=O)NC(c5ccccc5)c5ccccc5)N4C(=O)C(NC(=O)C(C)NC)C3)c2)CCC2CCC(C(=O)NC(c3ccccc3)c3ccccc3)N2C1=O (stereo unspecified) + Cc1c(S(C)(=O)=O)c(-c2cc(F)cc(N3CCN(c4ccc(NS(=O)(=O)c5ccc(NC(CCN6CCC(C(=O)OCCCP(=O)(O)O)CC6)CSc6ccccc6)c(S(=O)(=O)C(F)(F)F)c5)cc4)CC3)c2)c(-c2ccc(Cl)cc2)n1C(C)C :: criterion not met

Just wondering, is viability, T/C of O=C(c1cc(Cc2n[nH]c(=O)c3ccccc23)ccc1F)N1CCN(C(=O)C2CC2)CC1 + CNC(C)C(=O)NC1CN(S(=O)(=O)c2cccc(S(=O)(=O)N3CCC4CCC(C(=O)NC(c5ccccc5)c5ccccc5)N4C(=O)C(NC(=O)C(C)NC)C3)c2)CCC2CCC(C(=O)NC(c3ccccc3)c3ccccc3)N2C1=O below 80%?
criterion not met

Please do the same for C=CC(=O)N1CCN(c2nc(=O)n(-c3c(C)ccnc3C(C)C)c3nc(-c4c(O)cccc4F)c(F)cc23)C(C)C1 (stereo unspecified) + CNC(C)C(=O)NC1CN(S(=O)(=O)c2cccc(S(=O)(=O)N3CCC4CCC(C(=O)NC(c5ccccc5)c5ccccc5)N4C(=O)C(NC(=O)C(C)NC)C3)c2)CCC2CCC(C(=O)NC(c3ccccc3)c3ccccc3)N2C1=O as well.
criterion not met

Entry source: PubChem BioAssay AID1963444
